target: B1R of the rat (Rattus norvegicus, UniProt P97583); construct: expressed in transfected cells; host or cells: CHO K1 cells (Chinese hamster ovary), stably transfected; experiment: FLIPR Ca2+ functional assay, B1R antagonism, rat B1R in CHO K1 cells; format: cell-based; conditions: test substance 10 μM; rB1R CHO K1 cells; agonist Des-Arg9 bradykinin at EC80; % of maximum achievable inhibition
Sequence (P97583 whole entry): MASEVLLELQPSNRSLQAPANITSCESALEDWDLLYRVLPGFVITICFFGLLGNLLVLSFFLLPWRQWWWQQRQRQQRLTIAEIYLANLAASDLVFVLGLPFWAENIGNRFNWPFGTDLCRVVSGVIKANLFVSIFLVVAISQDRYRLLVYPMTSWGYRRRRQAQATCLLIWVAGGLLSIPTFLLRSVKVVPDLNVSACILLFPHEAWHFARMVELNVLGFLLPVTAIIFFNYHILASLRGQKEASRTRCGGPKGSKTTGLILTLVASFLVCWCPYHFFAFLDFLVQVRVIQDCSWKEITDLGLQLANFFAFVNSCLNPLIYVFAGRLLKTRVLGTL
Test readout: inhibition at 10 µM (%)

Here is how some compounds turned out for inhibition at 10 µM.
- Compound: "O=C(CC1c2cccn2CCN1S(=O)(=O)c1cccc(C(F)(F)F)c1)NC1CCc2cc(CN3C4CCCC3CC4)ccc2C1 (stereo not drawn) [Example 88]"
  Test readout: "inhibition at 10 µM"
  Test result: 96.5
- Compound: "Cc1cccc(Cl)c1S(=O)(=O)N1CCn2cccc2C1CC(=O)N1CCC(N2CCN(C)CC2)CC1 (stereo not drawn) [Example 161]"
  Test readout: "inhibition at 10 µM"
  Test result: 10.5
- Compound: "COc1ccc2cc(S(=O)(=O)N3CCn4cccc4C3CC(=O)NC3CCc4cc(CN(C)C)ccc4C3)ccc2c1 (stereo not drawn) [Example 96]"
  Test readout: "inhibition at 10 µM"
  Test result: 102

A = COc1cc(C)c(S(=O)(=O)N2CCn3cccc3C2CC(=O)NC2CCNCC2(C)C)c(C)c1 (stereo not drawn) [Example 17]
B = Cc1cccc(Cl)c1S(=O)(=O)N1CCn2cccc2C1CC(=O)N1CCC(CCN2CCCCC2)CC1 (stereo not drawn) [Example 165]
Of the two listed items, A and B , which carries the larger inhibition at 10 µM figure? I would appreciate it if you answered with the label of your choice. A

P = O=C(CC1c2cccn2CCN1S(=O)(=O)c1ccccc1)N1CCN(c2ccccc2F)CC1 (stereo not drawn) [Example 172]
Q = Cc1ccc(S(=O)(=O)N2CCn3cccc3C2CC(=O)NC2CCc3cc(CN4CCCc5ccccc54)ccc3C2)cc1Cl (stereo not drawn) [Example 52]
R = COc1ccc(CN2CCN(C(=O)CC3c4cccn4CCN3S(=O)(=O)c3ccccc3)CC2)cc1 (stereo not drawn) [Example 233]
Sort entries by inhibition at 10 µM from minimum to maximum value. Output the labels ranked as instructed. P, R, Q

P = COc1cc(C)c(S(=O)(=O)N2CCn3cccc3C2COCC(=O)N2CCN(C3CCN(C)CC3)CC2)c(C)c1 (stereo not drawn) [Example 2]
Q = Cc1cccc(Cl)c1S(=O)(=O)N1CCn2cccc2C1CC(=O)NCCN1CCCC1 (stereo not drawn) [Example 153]
Between P and Q , whose recorded inhibition at 10 µM is greater? Write down the label attached to your selection. P
